# Test system: HCT-116
# Test description: Cytotoxicity assay (SRB), HCT-116
# Assay type: cell-based
# Reported conditions: Homo sapiens, HCT-116, 72 h, HCT116 cells, SRB, three days; read-out: In Vitro Cellular Activity IC50 HCT116
pIC50: −log10 of the molar value.
Response key: 1.0 means pIC50 >= 5; 0.0 means pIC50 < 5.

Look over these answered cases.
Compound	Class
O=C1NC(=O)c2ccc(Br)cc2/C1=C/Nc1ccccc1CN1CCCCC1 [Example 41]	0.0
O=C1NC(=O)c2ccc(I)cc2/C1=C/Nc1ccc2ncccc2c1 [Example 272]	1.0

Now let's try a different one.
Q: Decide: pIC50 of COC(C)C1CCCN1Cc1ccc(N/C=C2\C(=O)NC(=O)c3ccc(I)cc32)cc1 (centres unmarked) [Example 375] >= 5?
Result: 1.0

====

# Test system: MCF-7
# Test description: Cytotoxicity assay (SRB), MCF-7
# Format: cell-based
# Reported conditions: Homo sapiens, MCF7, 72 h, MCF-7 cells, SRB, three days; read-out: In Vitro Cellular Activity IC50 MCF-7
Binarize IC50 at 2 µM; below is yes, at or above is no.

Look over these answered cases.
Compound	Class
O=C1NC(=O)c2ccc(Br)cc2/C1=C/NCc1ccc(O)c(O)c1O [Example 175]	no
CCCOc1ccc(CN/C=C2\C(=O)NC(=O)c3ccc(-c4ccc(F)cc4)cc32)cc1O [Example 192]	no
O=C1NC(=O)c2ccc(I)cc2/C1=C/Nc1ccc(CN2CCCC2)cc1 [Example 126]	no
CO[C@H]1CCN(Cc2ccc(N/C=C3\C(=O)NC(=O)c4ccc(-c5ccc(F)cc5)cc43)cc2)C1 [Example 265]	yes
CN1CCN(c2ccc(N/C=C3\C(=O)NC(=O)c4ccc(-c5ccc(OC(F)(F)F)cc5)cc43)cc2)CC1 [Example 298]	no

Q: Bench note: check whether CN1CCC(c2ccc(N/C=C3\C(=O)NC(=O)c4ccc(Br)cc43)cc2)CC1 [Example 344] shows IC50 below 2 µM
Result: yes

Q: Bench note: check whether COc1ccc(CN/C=C2\C(=O)NC(=O)c3ccc(Br)cc32)cc1F [Example 181] shows IC50 below 2 µM
Result: no

====

# Test target: cyclin E/CDK2 enzyme (Homo sapiens)
# Construct: made in house; host or cells: Sf9 insect cells, recombinant baculovirus
# Test description: CDK2 ELISA kinase assay (phospho-Rb ser 795 detection)
# Type: biochemical
# Reported conditions: In Vitro Enzyme Assays, read-out: CDK2 IC50
Experimental readout: IC50

The following compounds have reported results that may help.
Compound	Result
O=C1NC(=O)c2ccccc2/C1=C/Nc1ccc(CN2CCCCCC2)cc1	> 27 µM
CN(CCN1CCCCC1)c1ccc(N/C=C2\C(=O)NC(=O)c3ccc(Br)cc32)cc1	> 50 µM
C=CC(=O)Nc1ccc(CN/C=C2\C(=O)NC(=O)c3ccc(Br)cc32)cc1	7.8 µM
COc1ccc(CN/C=C2\C(=O)NC(=O)c3ccc(Cl)cc32)cc1O	> 50 µM

Give IC50 for each of the items listed below.
1. Cl.O=C1NC(=O)c2ccc(Br)cc2C1=NNc1ccc(CN2CCCCC2)cc1 [Example 144, Hydrochloride]
2. COC(=O)Nc1ccc(CN/C=C2\C(=O)NC(=O)c3ccc(Br)cc32)cc1OC(=O)OC
3. O=C1NC(=O)c2ccc(Br)cc2/C1=C/NCc1ccc(OC(F)F)c(O)c1
4. O=C1NCc2ccccc2/C1=C/Nc1ccc(-c2c[nH]cn2)cc1

Result:
> 50 µM
41.5 µM
> 50 µM
13 µM
